Attribution: ChEMBL document CHEMBL5058577

- System: HEK-293T
- assay remarks: Multiplex assay against HEK293T
- Format: toxicity, cell-based
- conditions: human, 48 h, 1 µM, compound concentration 1 uM, replicate 2
readout kind: Total Cell Count
Form rule: numeric answer, no unit written next to it.

## Task Please look up its Total Cell Count: C=CCN1C[C@H](C(=O)N(CCCN(C)C)C(=O)NCC)C[C@@H]2c3cccc4[nH]cc(c34)C[C@H]21 [CABERGOLINE]
## Result 633

## Task Field entry: CN1CCC(C(=O)c2cccc(NC(=O)c3c(F)cc(F)cc3F)n2)CC1
## Result 692

## Task Field entry: CC(C)(C)c1ccc(CSc2cnn(C(C)(C)C)c(=O)c2Cl)cc1 [PYRIDABEN]
## Result 522

## Task Field entry: Nc1nc(CC(=O)Nc2ccc(CCNC[C@H](O)c3ccccc3)cc2)cs1 [MIRABEGRON]
## Result 662

## Task Field entry: CC(C)(O)C(=O)N1CCN(c2ccc(C(F)(F)F)c(C3=C(c4c[nH]c5ccccc45)C(=O)NC3=O)c2)CC1
## Result 571

## Task Field entry: COc1ccc2c(c1OCc1ccccc1)C[C@@H](C(=O)O)N(C(=O)C(c1ccccc1)c1ccccc1)C2 [OLODANRIGAN]
## Result 818

## Task Field entry: CCc1nn2c(C)cc(C)nc2c1Cc1ccc(-c2nnc(C3CCNCC3)o2)cc1
## Result 829

----------
- Test system: Fibroblast
- assay remarks: Multiplex assay against human fibroblast
- Format: toxicity, cell-based
- conditions: 48 h, 10 µM, compound concentration 10 uM, replicate 1
Can you tell me Population Pyknosed Nuclei (%) for the items I'm about to list?
A bare number is not enough; add the unit after it.

## Task Please look up its Population Pyknosed Nuclei (%): CC(C)(O)C(=O)N1CCN(c2ccc(C(F)(F)F)c(C3=C(c4c[nH]c5ccccc45)C(=O)NC3=O)c2)CC1
## Result 38%

## Task Field entry: Cc1cc(=O)n(C)c2cc(N3C(=O)CC[C@H](NS(=O)(=O)CC(C)C)[C@H]3c3ccc(Cl)cc3)ccc12
## Result 37%

## Task Field entry: COc1cc(Nc2ncc3c(n2)-c2ccc(Cl)cc2C(c2c(F)cccc2OC)=NC3)ccc1C(=O)O
## Result 26%

## Task Field entry: COc1cc(OC2CCN(C(C)=O)CC2)ccc1C(=O)N1CCC(N2C(=O)OCc3ccccc32)CC1
## Result 9%

----------
- System: HEK-293T
- assay remarks: Multiplex assay against HEK293T
- Format: toxicity, cell-based
- conditions: human, 12 h, 10 µM, compound concentration 10 uM, replicate 1
readout kind: Population Hoechst High Intensity Objects (%)
Express the result in % but write the number alone.

## Task Please look up its Population Hoechst High Intensity Objects (%): N[C@](CC1c2ccccc2Oc2ccccc21)(C(=O)O)[C@H]1C[C@@H]1C(=O)O
## Result 8

## Task Field entry: Cc1cc(NC(=O)NCCN2CCC(O)(Cc3ccccc3)CC2)c2ccccc2n1 [PALOSURAN]
## Result 8

## Task Field entry: Nc1nc(-c2ccco2)c2cnn(Cc3ccccc3F)c2n1
## Result 8

----------
Can you tell me Population Membrane Permeable-Phenotype (%) for the items I'm about to list?
- Tested on: U2OS
- assay remarks: Multiplex assay against U2OS
- Assay type: toxicity, cell-based
- conditions: human, 48 h, 1 µM, compound concentration 1 uM, replicate 2
Express the result in % but write the number alone.

## Task Please look up its Population Membrane Permeable-Phenotype (%): Cc1cc(NC(=O)NCCN2CCC(O)(Cc3ccccc3)CC2)c2ccccc2n1
## Result 7

## Task Field entry: N[C@](CC1c2ccccc2Oc2ccccc21)(C(=O)O)[C@H]1C[C@@H]1C(=O)O
## Result 5

## Task Field entry: CC(C)(C)c1ccc(CSc2cnn(C(C)(C)C)c(=O)c2Cl)cc1
## Result 5

## Task Field entry: COc1cc2nc(N3CCN(C(=O)c4ccco4)CC3)nc(N)c2cc1OC.Cl [PRAZOSIN HYDROCHLORIDE]
## Result 7

## Task Field entry: CN(C)C(=O)Cn1cc(-c2ccc(-c3nnc4ccccn34)cc2)cn1
## Result 7

## Task Field entry: COc1ccc2[nH]c(I)c(CCNC(C)=O)c2c1
## Result 4

## Task Field entry: COc1c(Nc2ccc(S(C)(=O)=O)nc2C)ncnc1OC1CCN(C(=O)OC(C)C)CC1
## Result 5

## Task Field entry: COC(c1ccccc1)(c1ccccc1)[C@H](Oc1nc(C)cc(C)n1)C(=O)O
## Result 0

## Task Field entry: Cc1cc(=O)n(C)c2cc(N3C(=O)CC[C@H](NS(=O)(=O)CC(C)C)[C@H]3c3ccc(Cl)cc3)ccc12
## Result 6

## Task Field entry: CCn1c(-c2nc3cc(C(=O)N4CCCC(N)C4)ccc3n2C)cc2ccccc21.Cl (stereo unspecified)
## Result 10

## Task Field entry: COc1cc(C(=O)N2CC[C@@H](O)[C@@H](N)C2)cc2nc(-c3cc4ccccc4n3CC3CC3)n(C)c12.Cl
## Result 17

## Task Field entry: COc1ccc2c(c1OCc1ccccc1)C[C@@H](C(=O)O)N(C(=O)C(c1ccccc1)c1ccccc1)C2
## Result 3

## Task Field entry: Cc1sc2c(c1C)C(c1ccc(Cl)cc1)=N[C@H](CC(=O)OC(C)(C)C)c1nnc(C)n1-2
## Result 7

## Task Field entry: C[C@H](NC(=O)CNC(=O)c1cccc(Cl)c1)c1ccccc1
## Result 4

## Task Field entry: Cl.Cl.OCCOCCN1CCN(C(c2ccccc2)c2ccc(Cl)cc2)CC1 (stereo unspecified) [HYDROXYZINE HYDROCHLORIDE]
## Result 5

## Task Field entry: CC(C)C[C@H](CO)Nc1nc(S[C@@H](C)c2ccccc2)nc2nc(N)sc12
## Result 2

## Task Field entry: Cn1cc(C(=O)OCC2CCN(CCNS(C)(=O)=O)CC2)c2ccccc21
## Result 6

## Task Field entry: C=CCN1C[C@H](C(=O)N(CCCN(C)C)C(=O)NCC)C[C@@H]2c3cccc4[nH]cc(c34)C[C@H]21
## Result 4

## Task Field entry: Nc1nc(CC(=O)Nc2ccc(CCNC[C@H](O)c3ccccc3)cc2)cs1
## Result 8

## Task Field entry: CCCCC[C@H](O)/C=C/[C@H]1[C@H](O)CC(=O)[C@@H]1CCCCCCC(=O)O
## Result 6

## Task Field entry: Cc1c(Cc2ccc3ccccc3n2)c2cc(F)ccc2n1CC(=O)O
## Result 12

----------
- Test system: HEK-293T
- assay remarks: Multiplex assay against HEK293T
- Type: toxicity, cell-based
- conditions: human, 48 h, 10 µM, compound concentration 10 uM, replicate 1
Non-standard residues stand in square brackets, D forms with d. Residues, ends and D or L forms follow the SMILES beside them.
Dear colleague, classification is by Total Cell Count, with ranges listed here: class A: < 500; class B: ≥ 500 and < 700; class C: ≥ 700

## Task Class? Entry: COc1cc(OC2CCN(C(C)=O)CC2)ccc1C(=O)N1CCC(N2C(=O)OCc3ccccc32)CC1
## Result class C

## Task Field entry: CCCCCCNC(=O)Nc1ccc(S(=O)(=O)Nc2ccc(CCNC[C@H](O)COc3ccc(O)cc3)cc2)cc1
## Result class B

## Task Field entry: C[C@H](NC(=O)CNC(=O)c1cccc(Cl)c1)c1ccccc1
## Result class C

## Task Field entry: O=C(O)CCC/C=C\CC1C(O)CC(O)C1/C=C/C(O)COc1cccc(Cl)c1 (centres undefined)
## Result class B

## Task Field entry: Cl.Cl.OCCOCCN1CCN(C(c2ccccc2)c2ccc(Cl)cc2)CC1 (centres undefined) [HYDROXYZINE HYDROCHLORIDE]
## Result class B

## Task Field entry: CCc1nn2c(C)cc(C)nc2c1Cc1ccc(-c2nnc(C3CCNCC3)o2)cc1
## Result class B

## Task Field entry: Cc1cc(-c2ccc3c(c2)CC[C@H]3N2CC3(CCN(C(=O)Cc4cn5cc(C)sc5n4)CC3)C2)ncn1
## Result class C

## Task Field entry: COc1ccc2[nH]c(I)c(CCNC(C)=O)c2c1
## Result class C

## Task Field entry: CC(C)C[C@@H]1NC(=O)[C@@H](C(C)C)NC(=O)[C@@H]2CCCN2C(=O)[C@@H](CC(=O)O)NC(=O)[C@@H](Cc2c[nH]c3ccccc23)NC1=O [BQ-123] (cyclo(L[dW][dD]P[dV]))
## Result class C

## Task Field entry: O=C(Nc1cc(-c2ccccc2)nn1-c1ccccc1F)c1ccc([N+](=O)[O-])cc1
## Result class B

## Task Field entry: O=c1ccc2ccc(OCCCCN3CCN(c4cccc5sccc45)CC3)cc2[nH]1
## Result class A

## Task Field entry: S=C(NCCCc1c[nH]cn1)NCCCN(Cc1ccc(Cl)c(Cl)c1)c1ccc(Br)cn1
## Result class A

## Task Field entry: C[C@@H]1CC(=O)Nc2cccc(-c3ccc4c(c3)c(-c3cnn(C)c3)nn4C)c2N1
## Result class B

## Task Field entry: CN(C)C/C=C/C(=O)Nc1ccc(C(=O)N2CCCC(Nc3ncc(Cl)c(-c4c[nH]c5ccccc45)n3)C2)cc1 (centres undefined)
## Result class A

## Task Field entry: COCCCN1CCC(NC(=O)c2cc(Cl)c(N)c3c2OCC3)CC1 [PRUCALOPRIDE]
## Result class C

## Task Field entry: COc1cc(C(=O)N2CC[C@@H](O)[C@@H](N)C2)cc2nc(-c3cc4ccccc4n3CC3CC3)n(C)c12.Cl
## Result class A

## Task Field entry: Cn1cc(C(=O)OCC2CCN(CCNS(C)(=O)=O)CC2)c2ccccc21
## Result class C

## Task Field entry: CN1CCN(c2ccc(Nc3c4ccccc4nc4ccccc34)cc2)CC1.Cl.Cl.O
## Result class A

## Task Field entry: C=CCN1C[C@H](C(=O)N(CCCN(C)C)C(=O)NCC)C[C@@H]2c3cccc4[nH]cc(c34)C[C@H]21
## Result class C

## Task Field entry: CCC(=O)OCC(=O)[C@@]1(OC(=O)CC)[C@@H](C)C[C@H]2[C@@H]3CCC4=CC(=O)C=C[C@]4(C)[C@@]3(Cl)[C@@H](O)C[C@@]21C [BECLOMETHASONE DIPROPIONATE]
## Result class A

## Task Field entry: Cc1cc(=O)n(C)c2cc(N3C(=O)CC[C@H](NS(=O)(=O)CC(C)C)[C@H]3c3ccc(Cl)cc3)ccc12
## Result class B

## Task Field entry: Cc1ccc(OCC(O)C(C)NC(C)C)c2c1CCC2.Cl (centres undefined)
## Result class A

## Task Field entry: N[C@](CC1c2ccccc2Oc2ccccc21)(C(=O)O)[C@H]1C[C@@H]1C(=O)O
## Result class C

## Task Field entry: Nc1nc(CC(=O)Nc2ccc(CCNC[C@H](O)c3ccccc3)cc2)cs1
## Result class C

## Task Field entry: OCCCNc1cc(-c2ccnc(Nc3cccc(Cl)c3)n2)ccn1
## Result class A

## Task Field entry: COCCn1c(C)c(C)s/c1=N\C(=O)C1C(C)(C)C1(C)C
## Result class A
